experiment: in vitro; parameters: species or system HB2, HEK293; details: human, ccd841 cells
Response field class: string, computed from recorded viability at 48 h, 10 µM by ranges lower bin (below 70%), middle bin (70% to below 90%), upper bin (90% or more)

Reference set (3 entries):
Compound	Class assignment
CN(Cc1ccc(Cl)c(Cl)c1)C(=O)CCl	lower bin
O=C(CCl)N1CCc2ccc([N+](=O)[O-])cc21	lower bin
C=CC(=O)N1CCCC(NC(=O)c2ccc(C(F)(F)F)cc2)C1 (centres unmarked)	upper bin

Input: Which viability at 48 h, 10 µM category applies to C=CC(=O)N1CC(c2nc(C)no2)C1 here?
Output: upper bin

Input: Tag the class for Cc1ccc([N+](=O)[O-])c(NC(=O)CCl)c1C
Output: middle bin

Input: # bin lookup: classify CC(=O)Nc1cccc(NC(=O)CCl)c1 by its viability at 48 h, 10 µM
Output: lower bin

----------
assay: in vitro; set-up: species or system HB2, HEK293; details: human, ccd841 cells
Observed property: viability at 48 h, 10 µM (%)
Give bare numbers, in %.

Lab note: each compound below needs its viability at 48 h, 10 µM filled in.
1. C=CC(=O)NCc1cccc(C(F)(F)F)c1
2. C=CC(=O)N1CCC(c2noc(C3CC3)n2)CC1

Output:
107
103

----------
What NUDT7 was measured for each of the following?
molecular target: NUDT7 (Homo sapiens, UniProt P0C024); construct: residues 14-235, E. coli, pNIC28-Bsa4, N-terminal His6 tag removed by TEV, construct 26672 Da; set-up: Intact protein LC/MS covalent labelling, fragments in pools of five, 200 uM each, 4 °C; details: 24 h, 4 °C, pool of five; 200 µM; covalent
Sequence (P0C024 14-235): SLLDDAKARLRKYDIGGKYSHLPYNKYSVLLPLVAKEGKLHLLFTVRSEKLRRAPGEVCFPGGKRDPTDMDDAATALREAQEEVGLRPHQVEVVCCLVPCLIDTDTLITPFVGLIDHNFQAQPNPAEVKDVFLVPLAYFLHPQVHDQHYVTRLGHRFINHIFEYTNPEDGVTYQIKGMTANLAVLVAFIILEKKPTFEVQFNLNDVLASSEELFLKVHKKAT
Answers are plain numbers.

These solved cases illustrate the format of a correct answer.
Compound	NUDT7
C=CC(=O)NC1(C(N)=O)CCCOC1 (centres unmarked)	0
C=CC(=O)N1CCCC(Cc2nccn2C)C1 (centres unmarked)	0.2
CC(NC(=O)CCl)C1CC2CCC1C2 (centres unmarked)	0
CC(=O)c1cc2c(cc1NC(=O)CCl)OCO2	0.14
COc1cc(Cl)c(C)cc1NC(=O)CCl	0

Please look at the items below and tell me NUDT7 for each one, in order.
1. Cc1nn(C)c(C)c1NC(=O)CCl
2. C=CC(=O)N1CCCN(Cc2cn3cc(Cl)ccc3n2)CC1
3. CCOC(=O)N1CCN(C(=O)CCl)CC1

Output:
[0, 0.18, 0]

----------
assay: in vitro; design: species or system CCD841, HEK293; conditions: human, hb2 cells, read-out: HB-2 Cells Viability (%)
Assignment: determine reported viability at 48 h, 10 µM for the given compounds.
Answers are plain numbers, in %.

Compound	Scale unit	viability at 48 h, 10 µM
C=CC(=O)NCc1cnc(C)s1 [PCM-0102587]	%	107
Cc1cc(S(N)(=O)=O)cc(NC(=O)CCl)c1C [PCM-0102165]	%	34.5
COC(=O)c1ccc(NC(=O)CCl)cc1 [PCM-0102204]	%	22.5
C=CC(=O)Nc1ccccc1OC [PCM-0102493]	%	98.2
C=CC(=O)N1CCN(c2nccc3sccc23)CC1 [PCM-0102715]	%	97.2
C=CC(=O)NC1(C(N)=O)CCCOC1 (centres unmarked) [PCM-0102608]	%	107
O=C(CCl)Nc1cc(Cl)ccc1-n1cncn1 [PCM-0102258]	%	53.8

Input: Need viability at 48 h, 10 µM of CC1CC(=O)Nc2ccccc2N1C(=O)CCl (centres unmarked) [PCM-0102697] , thanks.
Output: 83.7

----------
assay: in vitro; design: species or system HB2, CCD841; settings: human, hek293 cells
Observed property: viability at 48 h, 10 µM

Here is how some compounds turned out for viability at 48 h, 10 µM.
Compound	Observed measurement
COc1ccccc1C(=O)NC(=O)CCl [PCM-0102574]	118%
O=C(CCl)Nc1cccc(C(=O)O)c1 [PCM-0102696]	84.6%
C=CC(=O)N1CCCc2cc(C(=O)O)ccc21 [PCM-0102421]	87.2%
O=C(CCl)Nc1ccccc1I [PCM-0102509]	99.4%

Hey, quick one: what's viability at 48 h, 10 µM for each of these?
1. CN(C(=O)CCl)C1(C#N)CCCCC1 [PCM-0102916]
2. Cc1csc(N(C(=O)CCl)c2ccccc2)n1 [PCM-0102265]
3. O=C(NC1CCN(C(=O)CCl)CC1)c1ccccc1 [PCM-0102575]
4. COc1ccccc1N1CCN(C(=O)CCl)CC1.Cl [PCM-0102173]

Output:
["7.5%", "48.6%", "40.6%", "58.2%"]

Would you mind giving viability at 48 h, 10 µM for every compound in the list below?
1. C=CC(=O)N1CC(O)CC1c1ccccc1C(F)(F)F (stereo not shown) [PCM-0102677]
2. CC(C)(C)C1CCc2sc(C(=O)NNC(=O)CCl)cc2C1 (stereo not shown) [PCM-0102260]

Output:
["109%", "10.2%"]

----------
assay: in vitro; design: species or system CCD841, HEK293; settings: human, hb2 cells, read-out: HB-2 Cells Viability (%)
Quick rule for you: viability at 48 h, 10 µM under 50% gets T, anything else gets F.

Past entries and their recorded results:
Compound	Class assignment
CC(C)(C)n1ncc2c1CCCC2NC(=O)CCl.Cl (centres unmarked)	F
O=C(CCl)NCc1ccc(Cl)s1	F
Cc1ccc(C)c(-n2nc(C)cc2NC(=O)CCl)c1	T
C=CC(=O)NCC1CCOC2(CCC2)C1 (centres unmarked)	F
C=CC(=O)N(C)Cc1c(C)nc2sc(C)cn12	F

Input: Determine if C=CC(=O)NC(c1cnn(C)c1)C(F)(F)F (centres unmarked) shows viability at 48 h, 10 µM strictly lower than 50%.
Output: F

Input: Does O=C(CCl)Nc1cccc(C(F)(F)F)c1 have viability at 48 h, 10 µM strictly under 50%?
Output: T

Input: Record O=C(CCl)N1CCCC2CCCCC21 (centres unmarked) : is its viability at 48 h, 10 µM strictly below 50%?
Output: T

----------
experiment: in vitro; design: species or system HB2, HEK293; conditions: human, ccd841 cells
Binary label based on viability at 48 h, 10 µM with cut-off 80%: below gives true (1), not below gives false (0).

These solved cases illustrate the format of a correct answer.
Compound	Class assignment
C=CC(=O)N1CCC(S(=O)(=O)N2CCCC2)C1 (stereo not drawn) [PCM-0102701]	false (0)
C=CC(=O)Nc1ccccc1[N+](=O)[O-] [PCM-0102742]	true (1)
O=C(CCl)NNC(=O)c1ccc(F)cc1 [PCM-0102430]	false (0)
C=CC(=O)N1CCc2c([nH]c3ccccc23)C1 [PCM-0102650]	false (0)
Cc1cc(CNC(=O)CCl)cc(C)c1O [PCM-0102431]	false (0)

Input: Problem: For the compound C=CC(=O)N1CCC2(CC1)CNC(=O)C2 [PCM-0102690] , is viability at 48 h, 10 µM under 80%?
Output: false (0)

Input: Consider CC(=O)c1cccc(N2Cc3ccccc3C2=NC(=O)CCl)c1 [PCM-0102283] . Does its viability at 48 h, 10 µM lie strictly below 80%?
Output: false (0)

Input: Please let me know if CC1CCCC(NC(=O)CCl)C1C (stereo not drawn) [PCM-0102663] shows viability at 48 h, 10 µM below 80%.
Output: false (0)

Input: I wonder whether O=C(CCl)NC(=O)NCC1COc2ccccc2O1 (stereo not drawn) [PCM-0102092] has viability at 48 h, 10 µM below 80%. Can you tell?
Output: true (1)

----------
experiment: in vitro; parameters: species or system HB2, CCD841; settings: human, hek293 cells
viability at 48 h, 10 µM less than 80% is Met; viability at 48 h, 10 µM greater than or equal to 80% is Not met.

Solved cases (5 shown):
Compound	Class assignment
O=C(CCl)Nc1nc(C2CC2)no1	Not met
C=CC(=O)N1C2CCC1CC(O)(Cc1ccc(F)cc1F)C2 (stereo not shown)	Not met
C=CC(=O)N1CCCn2c(cc3ccccc32)C1	Not met
CN(CC1COc2ccccc2O1)C(=O)CCl (stereo not shown)	Met
O=C(CCl)Nc1nnn[nH]1	Not met

Input: In the record for CC1CN(C(=O)CCl)CC(C)O1 (stereo not shown) , is viability at 48 h, 10 µM less than 80%?
Output: Met

Input: Please determine if Cl.O=C(CCl)N1CCN(Cc2ccccc2F)CC1 is below 80% in terms of viability at 48 h, 10 µM.
Output: Met

Input: Please indicate whether the reported viability at 48 h, 10 µM of CC(C)(O)CNC(=O)CCl is strictly below 80%.
Output: Not met

Input: Consider the compound Cl.O=C(CCl)N1CCN(c2ncccn2)CC1 . Is its viability at 48 h, 10 µM strictly less than 80%?
Output: Met

Input: Would you kindly verify if viability at 48 h, 10 µM of Cc1cc(NC(=O)CCl)ccc1Br is strictly less than 80%?
Output: Met

Input: Bench note: check whether CCC(C)(C)NC(=O)CCl shows viability at 48 h, 10 µM below 80%
Output: Not met

Input: Strictly below 80%: is that where viability at 48 h, 10 µM of C=CC(=O)NC(C#N)C(C)C (stereo not shown) sits?
Output: Not met
